Field: pEC50. Provide a value for each of the molecules that follow.
Target: FXR (Homo sapiens, UniProt Q96RI1)
Construct: HepG2 cells were stably transfected with either FXR reporter DNA; endogenous in cells
Sequence (Q96RI1 whole entry): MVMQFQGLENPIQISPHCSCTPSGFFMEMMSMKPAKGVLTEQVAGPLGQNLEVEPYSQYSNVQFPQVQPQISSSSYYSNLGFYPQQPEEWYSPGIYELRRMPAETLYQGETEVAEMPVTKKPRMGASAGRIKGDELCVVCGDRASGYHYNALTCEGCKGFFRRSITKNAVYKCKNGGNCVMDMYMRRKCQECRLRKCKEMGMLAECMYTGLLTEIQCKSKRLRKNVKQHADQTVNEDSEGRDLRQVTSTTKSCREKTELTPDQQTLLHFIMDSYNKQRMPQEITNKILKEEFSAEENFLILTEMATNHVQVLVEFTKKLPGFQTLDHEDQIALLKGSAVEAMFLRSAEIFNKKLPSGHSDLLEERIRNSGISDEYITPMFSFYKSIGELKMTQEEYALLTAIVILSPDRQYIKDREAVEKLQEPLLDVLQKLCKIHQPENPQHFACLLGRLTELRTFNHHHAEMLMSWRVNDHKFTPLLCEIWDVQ
Assay: FXR luciferase reporter assay in HepG2 reporter cells
Conditions: no ligand added; read-out: FXR (stimulation EC50)
pEC50: −log10 of the molar value.

Qu. Param item = C=C(CC[C@@H](C)[C@H]1CC[C@H]2C3=C(C(=O)[C@H](O)[C@]12C)[C@@]1(C)CC[C@@H](O)[C@@H](C)[C@@H]1CC3=O)[C@H](C)C(=O)O ; retrieve measured pEC50.
Ans. 4.40

I need pEC50 for every entry listed below, if you could help.
1. C=C(CC[C@@H](C)[C@H]1CC[C@H]2C3=C(C(=O)C[C@]12C)[C@@]1(C)CCC(=O)[C@@H](C)[C@@H]1C[C@@H]3O)[C@@H](C)C(=O)O
2. C=C(CCC(C(=O)O)[C@H]1C[C@H](OC(C)=O)[C@@]2(C)C3=CC[C@H]4C(C)(C)[C@@H](O)CC[C@]4(C)C3=CC[C@]12C)C(C)C (stereo partly drawn)

Ans.
["< 4.10", "< 4.10"]

----------
Biological target: FXR (Homo sapiens, UniProt Q96RI1)
Construct: HepG2 cells were stably transfected with either FXR reporter DNA; endogenous in cells; host or cells: HepG2 cells stably transfected with a 3x FXR response element PGL4.2 luciferase reporter
Assay: FXR luciferase reporter assay in HepG2 reporter cells
Format: cell-based
Details: no ligand added; read-out: FXR (stimulation EC50)
Can you tell me EC50 for the items I'm about to list?

Guide cases for EC50, answers given:
Qu. Can you look up the measured EC50 of C=C(CC[C@@H](C)[C@H]1CC[C@H]2C3=C(C(=O)C[C@]12C)[C@@]1(C)CCC(=O)[C@@H](C)[C@@H]1C[C@@H]3O)[C@H](C)C(=O)O [compound (III)] for me?
Ans. > 80 µM

Qu. # repeat for C=C(CCC(C(=O)O)C1CCC2(C)C3=C(CCC12C)C1(C)CCC(O)C(C)(C)C1CC3)C(C)C (stereo not drawn) [compound (XII)]
Ans. > 80 µM

Attention now turns to another entry.
Qu. Return reported EC50; argument: C=C(CC[C@@H](C)[C@H]1CC[C@H]2C3=C(C(=O)C[C@]12C)[C@@]1(C)CCC(=O)[C@@H](C)[C@@H]1CC3=O)[C@@H](C)C(=O)O [compound (VIII)]
Ans. > 80 µM

----------
Target: ER-β (Homo sapiens)
Sequence (Q92731 whole entry, species assumed): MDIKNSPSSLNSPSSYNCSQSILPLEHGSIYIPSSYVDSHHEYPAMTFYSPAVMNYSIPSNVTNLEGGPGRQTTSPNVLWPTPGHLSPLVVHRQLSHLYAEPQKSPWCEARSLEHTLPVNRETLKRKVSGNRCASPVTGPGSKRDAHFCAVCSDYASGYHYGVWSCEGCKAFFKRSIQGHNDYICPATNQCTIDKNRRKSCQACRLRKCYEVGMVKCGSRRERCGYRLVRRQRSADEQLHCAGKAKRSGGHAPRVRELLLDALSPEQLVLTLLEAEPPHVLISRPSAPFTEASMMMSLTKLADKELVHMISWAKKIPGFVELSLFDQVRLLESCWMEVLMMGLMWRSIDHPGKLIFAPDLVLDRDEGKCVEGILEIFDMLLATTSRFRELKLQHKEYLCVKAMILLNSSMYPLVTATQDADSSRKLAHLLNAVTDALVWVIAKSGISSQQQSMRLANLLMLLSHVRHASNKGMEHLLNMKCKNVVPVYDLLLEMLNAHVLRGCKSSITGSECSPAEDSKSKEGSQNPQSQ
Assay: Hormone receptor signaling pathway selectivity: ER-β
Format: cell-based
Conditions: with E2; read-out: IC50, inhibition of E2 action on ERβ
quantity kind: IC50 (µM)
One number for each entry, in µM.

Qu. Which IC50 is reported for this molecule? C=C(CC[C@@H](C)[C@H]1CC[C@H]2C3=C(C(=O)C[C@]12C)[C@@]1(C)CCC(=O)[C@@H](C)[C@@H]1CC3=O)[C@H](C)C(=O)O
Ans. 40

----------
Assign pIC50 to each entry below.
Molecular target: ER-α (Homo sapiens, UniProt P03372)
Sequence (P03372 1-595): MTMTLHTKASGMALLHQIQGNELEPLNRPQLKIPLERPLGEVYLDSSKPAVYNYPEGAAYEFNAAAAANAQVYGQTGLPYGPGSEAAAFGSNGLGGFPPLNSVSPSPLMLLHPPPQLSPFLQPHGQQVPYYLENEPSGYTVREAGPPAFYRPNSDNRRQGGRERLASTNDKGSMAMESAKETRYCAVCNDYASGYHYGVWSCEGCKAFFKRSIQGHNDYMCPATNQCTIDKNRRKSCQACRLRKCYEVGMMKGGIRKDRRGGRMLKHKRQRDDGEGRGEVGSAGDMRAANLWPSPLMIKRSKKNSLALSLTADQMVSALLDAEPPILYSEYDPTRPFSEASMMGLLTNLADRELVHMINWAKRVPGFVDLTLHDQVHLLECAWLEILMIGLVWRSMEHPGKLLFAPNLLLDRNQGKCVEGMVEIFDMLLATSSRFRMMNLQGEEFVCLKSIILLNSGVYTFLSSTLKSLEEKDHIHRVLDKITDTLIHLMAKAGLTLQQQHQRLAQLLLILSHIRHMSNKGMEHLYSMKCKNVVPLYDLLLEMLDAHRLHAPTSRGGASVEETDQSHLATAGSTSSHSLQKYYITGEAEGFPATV
Assay: Hormone receptor signaling pathway selectivity: ER-α mediated transcriptional response
Assay type: cell-based
Settings: with E2; read-out: ER-α with ligand E2 (inhibition IC50)
pIC50: −log10 of the molar value.

Observe how each entry below is paired with its result.
Qu. // lookup pIC50 for C=C(CCC(C(=O)O)C1CCC2(C)C3=C(CCC12C)C1(C)CCC(O)C(C)(C)C1CC3)C(C)C (stereo not drawn)
Ans. < 4.10

Qu. What do you get for CC(C)=CCCC(C(=O)O)C1CC(O)C2(C)C3=CCC4C(C)(CCC(O)C4(C)C)C3=CCC12C (stereo not drawn) ?
Ans. < 4.10

More entries:
Qu. Tell me the measured pIC50 of C=C(CC[C@@H](C)[C@H]1CC[C@H]2C3=C(C(=O)C[C@]12C)[C@@]1(C)CCC(=O)[C@@H](C)[C@@H]1C[C@@H]3O)[C@@H](C)C(=O)O , please.
Ans. 4.15

----------
Provide the recorded pIC50 for the entries that follow.
Molecular target: ER-α (Homo sapiens, UniProt P03372)
Assay: Hormone receptor signaling pathway selectivity: ER-α mediated transcriptional response
Format: cell-based
Conditions: with E2; read-out: ER-α with ligand E2 (inhibition IC50)
pIC50: −log10 of the molar value.

Qu. Consider the compound C=C(CC[C@@H](C)[C@H]1CC[C@H]2C3=C(CC[C@]12C)[C@@]1(C)CC[C@@H](O)C(C)(C)[C@@H]1C[C@@H]3O)[C@@H](C)C(=O)O and give its measured pIC50.
Ans. < 4.10

Qu. Now consider C=C(CC[C@@H](C(=O)O)[C@H]1C[C@H](O)[C@@]2(C)C3=CC[C@H]4C(C)(C)C(O)CC[C@]4(C)C3=CC[C@]12C)C(C)C (stereo partly shown) and answer again.
Ans. < 4.10

Qu. Another compound: C=C(CCC(C(=O)O)C1CCC2(C)C3=CCC4C(C)(CCC(O)C4(C)C)C3=CCC12C)C(C)C (stereo not shown)
Ans. < 4.10

Proceeding to the next compound to report its pIC50.
Qu. Give the measured pIC50 of C=C(CC[C@@H](C)[C@H]1CC[C@H]2C3=C(C(=O)C[C@]12C)[C@@]1(C)CCC(=O)[C@@H](C)[C@@H]1C[C@@H]3O)[C@H](C)C(=O)O .
Ans. < 4.10

----------
Exercise: state measured pEC50 for each of the compounds provided.
Molecular target: FXR (Homo sapiens)
Construct: HepG2 cells were stably transfected with either FXR reporter DNA; endogenous in cells
Experiment: FXR luciferase reporter assay in HepG2 reporter cells
Settings: no ligand added; read-out: FXR (stimulation EC50)
pEC50: −log10 of the molar value.

Consider the following illustrative entries.
Qu. Returns the measured pEC50 for the input compound. Input: C=C(CC[C@@H](C)[C@H]1CC[C@H]2C3=C(C(=O)[C@H](O)[C@]12C)[C@@]1(C)CC[C@@H](O)[C@@H](C)[C@@H]1CC3=O)[C@@H](C)C(=O)O
Ans. 4.60

Qu. Next compound up: C=C(CC[C@@H](C)[C@H]1CC[C@H]2C3=C(C(=O)C[C@]12C)[C@@]1(C)CCC(=O)[C@@H](C)[C@@H]1CC3=O)[C@H](C)C(=O)O
Ans. < 4.10

Qu. Same lookup for CC(C)=CCCC(C(=O)O)C1CC(O)C2(C)C3=CCC4C(C)(CCC(O)C4(C)C)C3=CCC12C (stereo not drawn) , please.
Ans. < 4.10

Qu. Consider next the compound C=C(CC[C@@H](C)[C@H]1CC[C@H]2C3=C(CC[C@]12C)[C@@]1(C)CC[C@@H](O)C(C)(C)[C@@H]1C[C@@H]3O)[C@@H](C)C(=O)O in the same way.
Ans. < 4.10

Qu. Moving on to C=C(CCC(C(=O)O)C1CCC2(C)C3=CCC4C(C)(CCC(O)C4(C)C)C3=CCC12C)C(C)C (stereo not drawn)
Ans. < 4.10

Pending compound:
Qu. I have this compound here, C=C(CC[C@@H](C(=O)O)[C@H]1C[C@H](O)[C@@]2(C)C3=CC[C@H]4C(C)(C)C(O)CC[C@]4(C)C3=CC[C@]12C)C(C)C (stereo partly drawn) , and I need its recorded pEC50.
Ans. < 4.10

----------
I'd be grateful if you could share measured pIC50 for these entries.
Target: VDR (Homo sapiens)
Sequence (P11473 whole entry, species assumed): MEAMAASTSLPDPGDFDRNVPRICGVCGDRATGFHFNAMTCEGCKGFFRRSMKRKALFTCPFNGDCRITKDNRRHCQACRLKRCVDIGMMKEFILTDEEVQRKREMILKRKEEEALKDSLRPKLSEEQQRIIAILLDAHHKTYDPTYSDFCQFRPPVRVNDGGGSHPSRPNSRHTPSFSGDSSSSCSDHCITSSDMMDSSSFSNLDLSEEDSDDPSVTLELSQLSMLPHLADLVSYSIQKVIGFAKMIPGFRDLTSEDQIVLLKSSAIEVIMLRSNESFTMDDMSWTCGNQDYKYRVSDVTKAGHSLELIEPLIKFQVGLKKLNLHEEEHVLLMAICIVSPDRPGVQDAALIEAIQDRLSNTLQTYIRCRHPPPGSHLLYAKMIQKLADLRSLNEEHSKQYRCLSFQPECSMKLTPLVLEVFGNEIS
Assay: Hormone receptor signaling pathway selectivity: VDRE (VDR)
Format: cell-based
Settings: with VD3; read-out: IC50, inhibition of VD3 action on VDR
One number for each entry, as −log10 of the molar value.

Qu. So what does the record say about pIC50 for C=C(CC[C@@H](C)[C@H]1CC[C@H]2C3=C(C(=O)C[C@]12C)[C@@]1(C)CCC(=O)[C@@H](C)[C@@H]1CC3=O)[C@@H](C)C(=O)O ?
Ans. 4.60

From here, focus on the item given below.
Qu. Form field: reported pIC50 of C=C(CC[C@@H](C)[C@H]1CC[C@H]2C3=C(C(=O)C[C@]12C)[C@@]1(C)CCC(=O)[C@@H](C)[C@@H]1CC3=O)[C@H](C)C(=O)O
Ans. 4.70
